Assay Overview: BET inhibitor-based combinations targeting novel dependencies in MECOM-rearranged (r) AML: OCI-AML3 cell line (AID 2202232); note: nearly all actives have a fitted effect of over 35% in size
Details: CellTiter-Glo luminescence, 48 h; OCI-AML3 viability; series mostly up to 46 µM
Inconclusive results are not listed. Calls of active or inactive are those of the source. Calls come from the whole dose curve; as a rule, active = well fitted inhibition curve with a large enough effect; inconclusive = small, poorly fitted or top-dose-only effect; inactive = no such curve, though single readings can be large or run the other way.
# valid calls are active, inactive; nothing else

mol_smiles=Cc1ccc2nc(NCCN)c3ncc(C)n3c2c1 class=active
mol_smiles=CC(=O)Nc1ccc(C(=O)NC(C)(C)C)cc1 class=inactive
mol_smiles=COc1cc(C(=O)NC(N)=Nc2ccc(C)c(NC(=O)c3ccc(-c4ccccc4)cc3)c2)cc(OC)c1OC class=active
mol_smiles=C[N+](C)(C)CC(=O)O class=inactive
mol_smiles=CCC(=O)NS(=O)(=O)c1ccc(-c2c(-c3ccccc3)noc2C)cc1 class=inactive
mol_smiles=CC(C)[C@H]1C(=O)N[C@@H](CCCN=C(N)N)C(=O)NCC(=O)N[C@@H](CC(=O)O)C(=O)N[C@H](Cc2ccccc2)C(=O)N1C class=inactive
mol_smiles=Cc1cc(-n2c(=O)ccc3cnc4[nH]ccc4c32)ccc1F class=inactive
mol_smiles=C=CCNC1=C2C[C@@H](C)C[C@H](OC)[C@H](O)[C@@H](C)/C=C(\C)[C@H](OC(N)=O)[C@@H](OC)/C=C\C=C(/C)C(=O)NC(=CC1=O)C2=O class=active
mol_smiles=CC(C)(C)c1[nH]cnc1/C=c1\[nH]c(=O)/c(=C/c2ccccc2)[nH]c1=O class=active
mol_smiles=CN(C)c1cc(NC(=O)CNC(C)(C)C)c(O)c2c1C[C@H]1C[C@H]3[C@H](N(C)C)C(=O)C(C(N)=O)=C(O)[C@]3(O)C(=O)C1=C2O class=inactive

QUERY: Hi team, can someone confirm the assay call for "CN1CCCN(C(=O)c2cccc(-c3ccc(/C=C4/C(=O)Nc5ccc(Cl)cc54)o3)c2)CC1" ?
RESULT: active

QUERY: Please state the recorded outcome for this compound: "CC(=O)[C@]1(N)Cc2c(O)c3c(c(O)c2[C@@H](O[C@H]2C[C@H](O)[C@H](O)CO2)C1)C(=O)c1ccccc1C3=O"
RESULT: active

====

Assay Overview: BET inhibitor-based combinations targeting novel dependencies in MECOM-rearranged (r) AML: AML-191 cell line (AID 2202236; note: nearly all actives have a fitted effect of over 35% in size; note: potency is the fitted concentration of half-maximal effect)
Details: AML-191 viability, CellTiter-Glo luminescence, 48 h; series mostly up to 46 µM
Results filed as inconclusive are left out. The source made the active and inactive calls. Calls come from the whole dose curve; as a rule, active = well fitted inhibition curve with a large enough effect; inconclusive = small, poorly fitted or top-dose-only effect; inactive = flat fitted curve, though single readings scatter.
Readout Type: Potency

Here's what some known entries look like.
compound=CN(Cc1ccc(/C=C/C(=O)NO)cc1)CC12CC3CC(CC(C3)C1)C2 observed="0.148 µM (active)"
compound=COc1cc(C(C)C)c2c(c1)S(=O)(=O)N(COc1cc(=O)n3cccc(OCCN4CCCCC4)c3n1)C2=O observed="29.5 µM (active)"
compound=O=C(Nc1cccc(Nc2ncc(Br)c(NCCc3cnc[nH]3)n2)c1)N1CCCC1 observed="5.25 µM (active)"
compound=CCc1c(C(=O)NNC(=O)[C@@H](O)c2cc(F)cc(F)c2)ccc(O)c1C observed=inactive
compound=COC1=C(OC)C(=O)C(C/C=C(\C)CC/C=C(\C)CC/C=C(\C)CC/C=C(/C)CC/C=C(\C)CC/C=C(\C)CC/C=C(\C)CC/C=C(\C)CC/C=C(\C)CCC=C(C)C)=C(C)C1=O observed=inactive
compound=O=C1NC(=O)/C(=C\c2ccc(-c3ccc(F)cc3)o2)S1 observed=inactive
compound=C[C@@H](Nc1ncnc2[nH]c(-c3ccc(O)cc3)cc12)c1ccccc1 observed="14.8 µM (active)"
compound=COc1ccnc2[nH]cc(C(=O)C(=O)N3CCN(C(=O)c4ccccc4)C[C@H]3C)c12 observed=inactive
compound="O=C1Cc2cc(C(=O)NC3C[C@H]4CC[C@@H](C3)N4S(=O)(=O)CC3CCN(CCCC(F)(F)F)CC3)c(Cl)cc2N1 (some centres not stated)" observed=inactive
compound=COc1ccc(CNC(=O)c2cc(-c3cncc(Cl)c3)cnc2-c2ccccn2)nc1OC observed=inactive

Lab book: Potency of "COc1cccc(Nc2ncnn3ccc(CN4CC[C@@H](N)[C@H](O)C4)c23)c1" noted as 4.68 µM (active)

For this compound ( CCNc1cc(NC2CCC(O)CC2)nc(Nc2ccc3c(ccn3Cc3ccccc3)c2)n1 (configuration not stated) ), measured Potency is inactive

The recorded Potency for entry "Cc1ccc(F)c(NC(=O)Nc2ccc(-c3cccc4[nH]nc(N)c34)cc2)c1" equals 16.6 µM (active)

Documented Potency of "CC1=C2C[C@H]3[C@@H](CC[C@@H]4C[C@H](NS(C)(=O)=O)CC[C@@]43C)[C@@H]2CC[C@@]2(C1)O[C@@H]1C[C@H](C)CN[C@H]1[C@H]2C" : 20.9 µM (active)

Measured Potency of C[C@@H]1C(=O)OC2[C@H](O)[C@]34[C@H]5C[C@@H](C(C)(C)C)[C@]36[C@@H](OC(=O)[C@@H]6O)O[C@@]4(C(=O)O5)[C@]21O (some centres not stated) : inactive

Per the record, CC(C)(c1ccc(OCC(O)CO)cc1)c1ccc(OCC(O)CCl)cc1 (configuration not stated) has Potency of inactive

Potency for "O=C1S/C(=C\c2ccc(OCc3cccc(B(O)O)c3)cc2)C(=O)N1Cc1ccc(F)cc1" is 18.6 µM (active)

====

Assay Overview: BET inhibitor-based combinations targeting novel dependencies in MECOM-rearranged (r) AML: AML-194 cell line (AID 2202237; note: nearly all actives have a fitted effect of over 40% in size; note: potency is the fitted concentration of half-maximal effect)
Details: AML-194 (MECOM-r AML) viability, CellTiter-Glo, 48 h; series mostly up to 46 µM
Inconclusive results are not listed. The source made the active and inactive calls. Calls follow the shape of the dose curve; as a rule, active = well fitted inhibition curve with a large enough effect; inconclusive = small, poorly fitted or top-dose-only effect; inactive = flat fitted curve, though single readings scatter.
Readout Type: Potency

The examples below pair each entry with its known result.
compound=O=c1ncccn1[C@@H]1O[C@H](CO)[C@@H](O)[C@H]1O observed=inactive
compound="NC(=O)c1cccc2c(NC(CN3CCC3)c3ccc(Cl)c(C(F)(F)F)c3)ncnc12 (centres undefined)" observed="16.6 µM (active)"
compound=C[C@]1(C(=O)N(CCCC(=O)O)Cc2cccc(Cl)c2)CCN1C(=O)c1csc2ccccc12 observed=inactive
compound=COCCn1c2c([n+](Cc3cnccn3)c1C)C(=O)c1ccccc1C2=O observed="0.186 µM (active)"
compound="COc1c(Nc2ncc(Cl)c(N[C@H]3[C@H](C(N)=O)[C@@H]4C=C[C@@H]3C4)n2)ccc2c1CCC(N1CCOCC1)CC2 (some centres undefined)" observed=inactive

So for "COc1ccnc2[nH]cc(C(=O)C(=O)N3CCN(C(=O)c4ccccc4)C[C@H]3C)c12" , the logged Potency turned out to be inactive

Entry "O=C(NO)c1cnc(N2C[C@H]3C[C@@H]2CN3c2cc(C(F)(F)F)ccn2)nc1" ; Potency = 4.17 µM (active)

get_value(item= "CN(C)C[C@@H]1CCn2cc(c3ccccc32)C2=C(C(=O)NC2=O)c2cn(c3ccccc23)CCO1" , readout=Potency) returns 5.9 µM (active)

Reported Potency of "COc1cc2c3c(n(CCCN4CCOCC4)c(=O)c2cc1OC)-c1cc2c(cc1C3=O)OCO2" : 0.417 µM (active)

====

Tested Target: Aldehyde dehydrogenase 1A1 (Homo sapiens) (UniProt P00352)
Assay Overview: qHTS for Inhibitors of the Aldehyde Dehydrogenase Family (ALDH1A1) Confirmatory screens (AID 2061316); note: nearly all actives have a fitted effect of over 65% in size; note: potency is the fitted concentration of half-maximal effect
Details: ALDH inhibition qHTS; series mostly up to 47.3 µM
Results filed as inconclusive are left out. Calls of active or inactive are those of the source. Calls follow the shape of the dose curve; as a rule, active = well fitted inhibition curve with a large enough effect; inconclusive = small, poorly fitted or top-dose-only effect; inactive = no such curve, though single readings can be large or run the other way.
Readout Type: Potency

molecule=CC(C)(O)c1ccccc1CC[C@H](SCC1(CC(=O)O)CC1)c1cccc(/C=C/c2ccc3ccc(Cl)cc3n2)c1 readout_type=Potency observed="22.5 µM (active)"
molecule=COc1ccccc1-c1nc(-c2ccc(C(=O)O)cc2)no1 readout_type=Potency observed=inactive
molecule=COc1ccc(-c2c(NC(C)=O)sc3c2CCNC3)cc1 readout_type=Potency observed="11.3 µM (active)"
molecule=O=C(Cc1ccc(F)cc1)Nc1cccc(-c2nc3cccnc3s2)c1 readout_type=Potency observed=inactive
molecule=O=C(O)c1cccc(-n2cccc2/C=C2/C(=O)N(Cc3ccc(F)cc3)C(=O)N2Cc2ccc(F)cc2)c1 readout_type=Potency observed=inactive
molecule=O=C([C@@H]1CCCN(c2ccc3[nH]c(C4(n5cc(Cl)cn5)CC4)nc3n2)C1)N1CCCC1 readout_type=Potency observed=inactive
molecule=FC(F)(F)c1ccc(-c2ccc(CNc3nc(-c4ccccc4C(F)(F)F)nc4ccccc34)cc2)cn1 readout_type=Potency observed="7.98 µM (active)"
molecule=CC(=O)Nc1sc2c(c1-c1ccco1)CCNC2 readout_type=Potency observed="25.2 µM (active)"

response.value for "O=C(NCC(=O)N1CCC(c2ccccc2)CC1)c1cccc(-c2ccc(C(F)(F)F)cc2)c1" (field: Potency) = inactive

So, "CCn1cnc2c(Nc3ccc(CC(=O)N=C(N)N)cc3)nc(C#N)nc21" ? Its Potency was inactive

====

Assay Overview: BET inhibitor-based combinations targeting novel dependencies in MECOM-rearranged (r) AML: OCI-AML3 cell line (AID 2202232); note: nearly all actives have a fitted effect of over 35% in size
Details: CellTiter-Glo luminescence, 48 h; OCI-AML3 viability; series mostly up to 46 µM
Inconclusive results are not listed. The source made the active and inactive calls. Calls come from the whole dose curve; as a rule, active = well fitted inhibition curve with a large enough effect; inconclusive = small, poorly fitted or top-dose-only effect; inactive = no such curve, though single readings can be large or run the other way.
Pick one: yes (1) for active, no (0) for inactive

// known answers, use as guide
molecule=C[C@]12CC[C@H](O)CC1=CC[C@@H]1[C@@H]2CC[C@]2(C)C(c3cccnc3)=CC[C@@H]12 class="no (0)"
molecule=CN1CCN(c2ccc3nc(-c4c(N)c5c(F)cccc5[nH]c4=O)[nH]c3c2)CC1 class="yes (1)"
molecule=NC(=O)c1ccc2nc(-c3ccc(C4(N)CCC4)cc3)c(-c3ccccc3)n2n1 class="yes (1)"
molecule=CC(C)Oc1ccc(C(=O)N[C@H](CNC(=O)CN(C)C)Cc2ccc(-c3cn4cccc([C@H](C)O)c4n3)cc2)cc1Cl class="yes (1)"
molecule=C=CCNc1c(O)cc2c(O)c1C[C@@H](C)C[C@H](OC)[C@H](O)[C@@H](C)/C=C(/C)[C@H](OC(N)=O)[C@@H](OC)/C=C\C=C(\C)C(=O)N2 class="yes (1)"
molecule="CC(c1cc2ccccc2s1)N(O)C(N)=O (stereo unspecified)" class="no (0)"
molecule=Nc1cc(C(F)(F)F)c(-c2nc(N3CCOCC3)nc(N3CCOCC3)n2)cn1 class="yes (1)"
molecule=COCc1c(-c2ccc(NC(=O)Nc3cc(C(F)(F)F)ccc3F)c(F)c2)c2c(N)ncnn2c1CN1CCOCC1 class="yes (1)"

QUERY: Called result for "N#Cc1ccc(C(c2ccc(C#N)cc2)n2cncn2)cc1"
RESULT: no (0)

QUERY: What call does the record list for C=C1C(=O)OC2/C=C(/C)CC/C=C(/C)CCC12 (stereo unspecified) ?
RESULT: yes (1)

Reference source for all entries: PubChem BioAssay (NCATS)
